I'd appreciate it if you could supply normalised response values for the items below.
tested on: MDA-MB-468; experiment: normalised response (% of control), CellTiter-Glo; higher = more viable cells (100 = DMSO, 0 = benzethonium chloride kill control); conditions: incubation time: 72 h
Give the number; % is assumed, so skip it.

## Input Which normalised response value is on record for CO[C@@]12[C@H](COC(N)=O)C3=C(C(=O)C(C)=C(N)C3=O)N1C[C@@H]1N[C@@H]12 [Mitomycin C] (10000 nM) ?
## Output 22.5

## Input Which normalised response value is on record for CC[C@H](CO)Nc1nc(NCc2ccccc2)c2ncn(C(C)C)c2n1 [Seliciclib] (10000 nM) ?
## Output 87.1

## Input Which normalised response value is on record for CN(Cc1cnc2nc(N)nc(N)c2n1)c1ccc(C(=O)N[C@@H](CCC(=O)O)C(=O)O)cc1 [Methotrexate] (50000 nM) ?
## Output 100

## Input Which normalised response value is on record for Nc1ccn([C@@H]2O[C@H](CO)[C@@H](O)C2(F)F)c(=O)n1 [Gemcitabine] (1000 nM) ?
## Output 22.1

## Input Which normalised response value is on record for Cn1cc(C2=C(c3cn(C4CCN(Cc5ccccn5)CC4)c4ccccc34)C(=O)NC2=O)c2ccccc21 [Enzastaurin] (10000 nM) ?
## Output 82.9

----------
system: MDA-MB-453; assay: normalised response (% of control), CellTox Green; higher = less cell death (100 = DMSO, 0 = benzethonium chloride kill control); settings: incubation time: 72 h
I'd appreciate it if you could supply normalised response values for the items below.
Give the number; % is assumed, so skip it.

## Input Give the reported normalised response for O=[N+]([O-])c1ccc2c(c1)S(=O)(=O)C=C2 [Stattic] (5000 nM) (system: MDA-MB-453).
## Output 108

## Input Give the reported normalised response for CC(C)C[C@H](NC(=O)[C@@H](COC(C)(C)C)NC(=O)[C@H](Cc1ccc(O)cc1)NC(=O)[C@H](CO)NC(=O)[C@H](Cc1c[nH]c2ccccc12)NC(=O)[C@H](Cc1cnc[nH]1)NC(=O)[C@@H]1CCC(=O)N1)C(=O)N[C@@H](CCCNC(=N)N)C(=O)N1CCC[C@H]1C(=O)NNC(N)=O [Goserelin] (10000 nM) (system: MDA-MB-453).
## Output 95

## Input Give the reported normalised response for CC(C)(C)NC(=O)[C@H]1CC[C@H]2[C@@H]3CC[C@H]4NC(=O)C=C[C@]4(C)[C@H]3CC[C@]12C [Finasteride] (1000 nM) (system: MDA-MB-453).
## Output 105

## Input Give the reported normalised response for CC1(C)CCC(c2ccc(Cl)cc2)=C(CN2CCN(c3ccc(C(=O)NS(=O)(=O)c4ccc(N[C@H](CCN5CCOCC5)CSc5ccccc5)c(S(=O)(=O)C(F)(F)F)c4)cc3)CC2)C1 [Navitoclax] (100 nM) (system: MDA-MB-453).
## Output 92

## Input Give the reported normalised response for Cc1cn(-c2cc(NC(=O)c3ccc(C)c(Nc4nccc(-c5cccnc5)n4)c3)cc(C(F)(F)F)c2)cn1 [Nilotinib] (100 nM) (system: MDA-MB-453).
## Output 85.7

----------
system: DU-4475; test: normalised viability (% of control), CellTiter-Blue; higher = more viable cells (about 100 = DMSO control); conditions: 100 nM; incubation time: 72 h
I'd appreciate it if you could supply normalised viability values for the items below.
Give the number; % is assumed, so skip it.

## Input Which normalised viability value is on record for COc1c2occc2cc2ccc(=O)oc12 ?
## Output 111

## Input Which normalised viability value is on record for CN(Cc1cnc2nc(N)nc(N)c2n1)c1ccc(C(=O)N[C@@H](CCC(=O)O)C(=O)O)cc1 [Methotrexate] ?
## Output 101

## Input Which normalised viability value is on record for CO[C@@]12[C@H](COC(N)=O)C3=C(C(=O)C(C)=C(N)C3=O)N1C[C@@H]1N[C@@H]12 ?
## Output 91

## Input Which normalised viability value is on record for COc1cc(Nc2c(C#N)cnc3cc(OCCCN4CCN(C)CC4)c(OC)cc23)c(Cl)cc1Cl ?
## Output 86.5

## Input Which normalised viability value is on record for CC(C)C[C@H](NC(=O)[C@@H](COC(C)(C)C)NC(=O)[C@H](Cc1ccc(O)cc1)NC(=O)[C@H](CO)NC(=O)[C@H](Cc1c[nH]c2ccccc12)NC(=O)[C@H](Cc1cnc[nH]1)NC(=O)[C@@H]1CCC(=O)N1)C(=O)N[C@@H](CCCNC(=N)N)C(=O)N1CCC[C@H]1C(=O)NNC(N)=O ?
## Output 111
